- PROTOCOL_DESCRIPTION: Urinary excretion of drug after rectal administration of suppositories to fasted rabbits (bioassay)
- Format: in vivo
- CONDITION_PARAMETERS: rabbit, in vivo, 100 mg, rectal suppository, 100 mg in potency, base WITEPSOL H-5, additive Na caprate, 3% Arginine Na, 4%, read-out: Urinary excretion (0-6 hours)
MEASURED_ENDPOINT: dose excreted at 6 h (%)
Hi! Could you send only the number? It should be in %, unit omitted.

Name the recorded dose excreted at 6 h for `CNC[C@@H]1CC[C@@H](N)[C@@H](O[C@H]2[C@H](O)[C@@H](O[C@H]3OC[C@](C)(O)[C@H](NC)[C@H]3O)[C@H](N)C[C@@H]2N)O1` .
48.2
